- Tested on: GST-tagged Cn
- Assay summary: PEPperPRINT peptide microarray binding assay with GST-tagged Cn
- Applied conditions: GST-tagged Cn, max over the chip spots listed under Location on chip
Experimental readout: Chip Fluorescence (max)
Lab note: jot down the number only; don't add units.

Example cases with answers are listed next.
                      primary_sequence    test_target     experimental_readout  recorded_measurement
0  KVTTLKSVSPAIAAPE [Seqshuffled_1741]  GST-tagged Cn  Chip Fluorescence (max)                0.7857
1       TFTDNPQYTIKLVETD [SeqRBM_9774]  GST-tagged Cn  Chip Fluorescence (max)                0.9523
2   TFWTNPQYRITVTEPD [SeqRBMlowT_7465]  GST-tagged Cn  Chip Fluorescence (max)                0.8889

stdin: Which Chip Fluorescence (max) is listed for KAYMCPFMQFIEGGRR [SeqRBMlowT_535] ?
stdout: 0.9778

stdin: Returns the measured Chip Fluorescence (max) for the input sequence. Input: QLRDIFQGRMITILTP [Seqshuffled_3466]
stdout: 0.7348

stdin: Would you kindly share the measured Chip Fluorescence (max) for SSQGSSRPARSPERTV [SeqRBM_2387] ?
stdout: 0.4699

stdin: Consider the sequence SAASFRIKQIEFMVSA [Seqshuffled_4815] and give its measured Chip Fluorescence (max).
stdout: 0.7621

stdin: Sample ASSSAPEIVVSKPEHN [SeqKCNN2_Pan_troglodytes] — what was its Chip Fluorescence (max)?
stdout: 0.501

###

- Test system: GST-tagged Cn
- Assay summary: PEPperPRINT peptide microarray binding assay with GST-tagged Cn
- Applied conditions: GST-tagged Cn, mean over the spots on the chip (two locations)
Each entry below carries its recorded Chip Fluorescence (mean).
Please give the numeric answer without any surrounding text.

As a guide, the following entries are already answered.
>>> print(df.to_string())
                     primary_sequence    test_target  recorded_measurement
0  ADGAGVGIVITVTEAE [SeqRBMlowT_1411]  GST-tagged Cn               -0.2973
1  TFWTNPQFVVSLEEPD [SeqRBMlowT_8096]  GST-tagged Cn               -0.6823
2  TFWSNPQFKIKLEEPD [SeqRBMlowT_2229]  GST-tagged Cn              -0.06201

stdin: What does the data say about its Chip Fluorescence (mean)? Entry: TFWTNPQFRLTLLSPD [SeqRBMlowT_9173]
stdout: 0.4236

stdin: For the sequence PAGTGVGIVITVTEAE [SeqRBMlowT_157] , what Chip Fluorescence (mean) is on record?
stdout: -0.03937

stdin: Given TTWLVVFMIPELMKLS [Seqshuffled_9855] , state its recorded Chip Fluorescence (mean).
stdout: 0.8684

###

- Test system: GST-tagged Cn
- Assay summary: PEPperPRINT peptide microarray binding assay with GST-tagged Cn
- Applied conditions: mean over the chip locations listed for the peptide (two spots)
Tag: True if measured Chip Fluorescence (mean) is not below 0.9, False if it is.

Study these solved cases before continuing.
>>> print(df.to_string())
                           primary_sequence    cat
0        TFWANPQYKIHLEEED [SeqRBMlowT_4653]  False
1        TFWTNPQFRLKLEEVD [SeqRBMlowT_5628]   True
2          TFWSNPQFRITLEDPD [SeqRBMlowT_45]  False
3         PSEDQPGIVVHVCEED [SeqRBMlowT_124]  False
4         FFHHGLSCCKARQAEY [Seqrandom_9955]  False
5        LKDEIPEVRLNIISNL [SeqRBMlowT_1003]   True
6  QSQSNPEITVTPPETE [SeqRIPOR2_Austrofundulus_limnaeus]  False
7       KERDVNYYIIHPVGSA [Seqshuffled_9799]  False

stdin: Decide: Chip Fluorescence (mean) of TFWMNPQFKISLEDPD [SeqRBMlowT_4243] >= 0.9?
stdout: True

stdin: Could you please find out whether TNSHNPQVDLKIPQVR [SeqRBMlowT_6893] has Chip Fluorescence (mean) that meets 0.9 or exceeds it?
stdout: True

stdin: Test whether the sequence SFWTNPQFKITLEEPD [SeqRBMlowT_6820] records Chip Fluorescence (mean) of 0.9 or higher.
stdout: True

stdin: Is it the case that ADEAIPEITITSAELP [SeqRBMlowT_2514] has Chip Fluorescence (mean) reaching or exceeding 0.9?
stdout: True

stdin: Has FHYEDLSWHFQLFEGE [Seqrandom_9976] a recorded Chip Fluorescence (mean) greater than or equal to 0.9?
stdout: True

stdin: State whether the measured Chip Fluorescence (mean) reaches 0.9, counting equality as reaching it, for SNSTNPEITITPAELC [SeqRIPOR2_Tarsius_syrichta]
stdout: True

stdin: Say whether TFWTNPQFKITLEEED [SeqRBMlowT_217] shows Chip Fluorescence (mean) of 0.9 or more.
stdout: False

stdin: # bool: Chip Fluorescence (mean) of SVDKHPRVYVATSRED [SeqRBM_4749] >= 0.9
stdout: False

stdin: # check: Chip Fluorescence (mean) of RCISAYKLDSVMMDPS [Seqrandom_9957] is greater than or equal to 0.9
stdout: False

stdin: Is reported Chip Fluorescence (mean) greater than or equal to 0.9 here: PLGTQPGIVVHVCELN [SeqRBMlowT_356]
stdout: True

stdin: Does the reported Chip Fluorescence (mean) for TTAMNPQFFVQIPRTA [SeqCAPN11_Daphnia_magna_2] fall at or above the 0.9 mark?
stdout: False

stdin: Hi team, for TFWTNPQFRVTLTEPD [SeqRBMlowT_9005] , is the recorded Chip Fluorescence (mean) at or above 0.9?
stdout: False

stdin: Does TFWTNPQYRITLEELD [SeqRBMlowT_2291] have a reported Chip Fluorescence (mean) of at least 0.9?
stdout: True

stdin: Is it the case that SNLACNDRHPNNEDAK [Seqshuffled_9450] has Chip Fluorescence (mean) reaching or exceeding 0.9?
stdout: True

stdin: In plain terms: is recorded Chip Fluorescence (mean) at least 0.9 for ATPGTFPRGDGAHKKQ [SeqRBMlowT_5886] ?
stdout: False

stdin: Determine whether measured Chip Fluorescence (mean) meets or exceeds 0.9 for GTLYDNVLGIESFSLS [SeqRBMlowT_4817]
stdout: True

stdin: Chip Fluorescence (mean) >= 0.9 for CDHMGLDIVIFVTELC [SeqRBM_1060] ?
stdout: True
